# System: rabbit aortic smooth muscle
# EXPERIMENTAL_PROTOCOL: Ca+2 antagonism: relaxation of KCl-depolarised rabbit thoracic aorta strips
# Type: cell-based
# CONDITION_NOTES: Oryctolagus cuniculus, 20 min; test compound 1 x 10^-5 M; 100 mM KCl contracted aortic strips; 20 min after addition; mean of two experiments; read-out: percent relaxation (P. R.)
QUANTITY_KIND: inhibition at 10 µM (%)
Give bare numbers, in %.

// below: answered molecules
COc1ccc(CCN(C)CCCS(=O)(=O)N(c2cccc(C(F)(F)F)c2)C(C)C)cc1OC ... 78.5
COc1ccc(CCN(C)CCCN(C(C)C)S(=O)(=O)c2ccc(OC)c(OC)c2OC)cc1OC ... 80
COc1ccc(CCN(C)CCCN(C(C)C)S(=O)(=O)c2cccc(C(F)(F)F)c2)cc1OC ... 86.6

Find the recorded inhibition at 10 µM belonging to `COc1ccc(CCN(C)CCCS(=O)(=O)N(c2cc(OC)c(OC)c(OC)c2)C(C)C)cc1OC` and report it. 62
